Cited source for all entries: ChEMBL document CHEMBL4689842

system: HEK-293T; assay: Multiplex assay against HEK293T; format: toxicity, cell-based; conditions: human, 12 h, 1 µM, compound concentration 1 uM, replicate 2
outcome.measure: Population Membrane Permeable-Phenotype (%)
Respond with the bare value in %.

[ask] State its Population Membrane Permeable-Phenotype (%): CCCn1c(=O)c2[nH]c(C34CC5CC(CC3C5)C4)nc2n(CCC)c1=O
[reply] 10

[ask] Report measured Population Membrane Permeable-Phenotype (%); entry is Cl.Cl.Nc1ncnc2c1c(-c1cccc(OCc3ccccc3)c1)cn2[C@H]1C[C@@H](CN2CCC2)C1
[reply] 2

[ask] Give the measured Population Membrane Permeable-Phenotype (%) for CCn1c(-c2nonc2N)nc2cnc(Oc3cccc(NC(=O)c4ccc(OCCN5CCOCC5)cc4)c3)cc21 [GSK-269962A]
[reply] 5

[ask] Using known records, supply Population Membrane Permeable-Phenotype (%) for Cl.Cl.NC1(c2ccc(-c3nc4ccn5c(=O)[nH]nc5c4cc3-c3ccccc3)cc2)CCC1
[reply] 6

[ask] Kindly indicate its recorded Population Membrane Permeable-Phenotype (%). Item: CNc1oc(-c2cccc3ccccc23)nc1C#N
[reply] 8

[ask] Output Population Membrane Permeable-Phenotype (%) of CCC(=O)O[C@]1(C(=O)SCF)[C@H](C)C[C@H]2[C@@H]3C[C@H](F)C4=CC(=O)C=C[C@]4(C)[C@@]3(F)[C@@H](O)C[C@@]21C [FLUTICASONE PROPIONATE]
[reply] 7

[ask] Provide one value: measured Population Membrane Permeable-Phenotype (%) of Cc1cn(-c2cc(NC(=O)c3ccc4c(c3)CN(c3cncnc3)C[C@@H]4C)cc(C(F)(F)F)c2)cn1
[reply] 2

[ask] Give the value of Population Membrane Permeable-Phenotype (%) reported for the following: COc1cc2c(NC3CCN(C(C)C)CC3)nc(N3CCC(F)(F)CC3)nc2cc1OCCCN1CCCC1
[reply] 4

[ask] Tell me Population Membrane Permeable-Phenotype (%) reported for CC(=O)c1cc(-c2cc(C(=O)NC3CC3)ccc2C)c2ncccn12
[reply] 5

[ask] Please give measured Population Membrane Permeable-Phenotype (%) of the following entry: CN(C)CCOc1ccc(-c2nc(-c3ccncc3)c(-c3ccc4c(c3)CC/C4=N\O)[nH]2)cc1
[reply] 12

[ask] Output measured Population Membrane Permeable-Phenotype (%) for this item: CC(C)Oc1ccc(C(=O)N[C@H](CNC(=O)CN(C)C)Cc2ccc(-c3cn4cccc([C@H](C)O)c4n3)cc2)cc1Cl [GSK-923295A]
[reply] 3

[ask] Dear colleague, please send me the reported Population Membrane Permeable-Phenotype (%) for CCOc1cc2ncc(C#N)c(Nc3ccc(OCc4cccc(F)c4)c(Cl)c3)c2cc1NC(=O)/C=C/CN(C)C when you can.
[reply] 1

[ask] Give the value of Population Membrane Permeable-Phenotype (%) reported for the following: CNC(=O)c1cc(Oc2ccc(NC(=O)Nc3cc(C(C)(C)C)nn3-c3ccc4ncccc4c3)c(F)c2)ccn1
[reply] 7

[ask] Name the recorded Population Membrane Permeable-Phenotype (%) of the item N#Cc1cnc(Nc2cc(NC[C@H]3CNCCO3)c(C(F)(F)F)cn2)cn1 in your answer.
[reply] 2

[ask] // fetch Population Membrane Permeable-Phenotype (%) given entry c1ccc2oc(-c3csc(C4CCN(Cc5nc6ncccc6[nH]5)CC4)n3)cc2c1
[reply] 1

[ask] Tell us which Population Membrane Permeable-Phenotype (%) value is on record for CC(C)(C)c1cnc(CSc2cnc(NC(=O)C3CCNCC3)s2)o1
[reply] 1

[ask] # return recorded Population Membrane Permeable-Phenotype (%) for input COc1ccc(NS(=O)(=O)c2sc3ccc(Cl)cc3c2C)cc1N1CCNCC1.Cl
[reply] 15

[ask] Give me measured Population Membrane Permeable-Phenotype (%), please, for this molecule: Cc1cc2c(cc1N1C(=O)c3cccc4c(CCCO)ccc(c34)C1=O)n(C)c(=O)n2C
[reply] 5

[ask] // fetch Population Membrane Permeable-Phenotype (%) given entry CCOc1cc(N2CCC(O)CC2)ccc1Nc1ncc2c(n1)N(C1CCCC1)CCC(=O)N2C
[reply] 1

[ask] Provide measured Population Membrane Permeable-Phenotype (%) value, entry: CC(C)N1CCC(C)(C)c2cc(C#Cc3ccc(C(=O)O)cc3)ccc21
[reply] 8

[ask] Look up Population Membrane Permeable-Phenotype (%) of Nc1nc2c(c(N3CCNCC3)n1)CCC1=C2[C@@H]2CCCC[C@@H]2O1 and report it.
[reply] 6

[ask] Provide one value: measured Population Membrane Permeable-Phenotype (%) of O=C(O)c1ccc2cc(-c3ccc(O)c(C45CC6CC(CC(C6)C4)C5)c3)ccc2c1
[reply] 8

[ask] Using known records, supply Population Membrane Permeable-Phenotype (%) for CCc1cc2c(cc1CC)CC(NC[C@H](O)c1ccc(O)c3[nH]c(=O)ccc13)C2
[reply] 10

[ask] Please report the measured Population Membrane Permeable-Phenotype (%) for Cc1nc(Cc2cccc(C(F)(F)F)c2)sc1-c1ccc(C(N)=O)nc1 [TP-024n]
[reply] 9

[ask] Read the entry CNC(=O)c1nn(C)c2c1C(C)(C)Cc1cnc(Nc3ccc(N4CCN(C)CC4)cc3)nc1-2 and write its reported Population Membrane Permeable-Phenotype (%).
[reply] 3

[ask] Respond only with Population Membrane Permeable-Phenotype (%) recorded for CN(C)C/C=C/C(=O)Nc1cc2c(Nc3ccc(F)c(Cl)c3)ncnc2cc1O[C@H]1CCOC1.O=C(O)/C=C\C(=O)O.O=C(O)/C=C\C(=O)O [AFATINIB DIMALEATE]
[reply] 4

[ask] Identify measured Population Membrane Permeable-Phenotype (%) corresponding to COc1cc2c(Nc3ccc(NC(=O)c4ccccc4)cc3)ncnc2cc1OCCCN1CCOCC1
[reply] 15
